Item-by-item account of IC50
# measurement_target: CDK4/Cyclin D1 (Homo sapiens (Human))
# Sequence (P11802 whole entry, species assumed): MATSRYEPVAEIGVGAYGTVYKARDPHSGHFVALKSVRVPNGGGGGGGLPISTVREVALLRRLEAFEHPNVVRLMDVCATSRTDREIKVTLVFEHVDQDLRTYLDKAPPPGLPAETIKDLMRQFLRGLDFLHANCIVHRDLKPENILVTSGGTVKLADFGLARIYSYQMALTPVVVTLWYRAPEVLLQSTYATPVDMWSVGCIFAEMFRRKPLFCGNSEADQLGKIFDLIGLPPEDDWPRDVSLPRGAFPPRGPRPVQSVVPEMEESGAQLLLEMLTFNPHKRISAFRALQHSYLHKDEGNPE
# Sequence (P24385 whole entry partner, species assumed): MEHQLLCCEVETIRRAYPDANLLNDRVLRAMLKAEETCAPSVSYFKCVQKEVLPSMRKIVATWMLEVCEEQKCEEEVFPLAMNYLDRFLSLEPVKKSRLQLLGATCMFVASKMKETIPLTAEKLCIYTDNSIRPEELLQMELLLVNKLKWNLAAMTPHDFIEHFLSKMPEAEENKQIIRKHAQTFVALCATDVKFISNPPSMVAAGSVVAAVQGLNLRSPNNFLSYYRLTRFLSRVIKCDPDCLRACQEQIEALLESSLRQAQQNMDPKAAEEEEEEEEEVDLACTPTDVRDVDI
# method_notes: CDK4/Cyclin D1 CHEF Assay
# Assay type: biochemical
# experimental_setup: AQT; read-out: CDK4/CyclinD1 AQT IC50
# Experimental: CDK4/Cyclin D1 CHEF Assay The purpose of CDK4/Cyclin Dl assay is to evaluate the inhibition (% inhibition and IC50 values) of small molecule inhibitors by using a Chelation-Enhance Fluorescence (CHEF) assay. In a CHEF assay, phosphorylation of a peptide substrate results in proportional increase in fluorescence. […] Reactions were allowed to proceed for 3 hrs at 22° C., followed by fluorescence read of the reaction. […]

compound: Cc1cc2cnc(Nc3ccc(N4CC5(CN(C)C5)C4)cc3)nc2c(N2CCC3(CCOCC3)C2)n1 [Compound 35]
measurement_target: CDK4/Cyclin D1 (Homo sapiens (Human))
IC50: < 200 nM
//
compound: Cc1cc2cnc(Nc3ccc(CS(C)(=O)=O)cc3)nc2c(N2CC(O)(C3CC3)C2)n1 [Compound 83]
measurement_target: CDK4/Cyclin D1 (Homo sapiens (Human))
IC50: < 200 nM
//
compound: Cc1cc2cnc(NC3CCN(S(C)(=O)=O)CC3)nc2c(N2CC3(C2)CC(C)(O)C3)n1 [Compound 79]
measurement_target: CDK4/Cyclin D1 (Homo sapiens (Human))
IC50: < 200 nM
//
compound: COCCN1CC2(CC(c3nc(C4CC4)cc4cnc(NC5CCN(S(=O)(=O)CC6CCC6)CC5)nc34)C2)C1 [Compound 80]
measurement_target: CDK4/Cyclin D1 (Homo sapiens (Human))
IC50: < 200 nM
//
compound: Cc1cc2cnc(Nc3ccc4c(c3)CN(C3CN(S(C)(=O)=O)C3)C4)nc2c(N2CC3(CN(C)C3)C2)n1 [Compound 29]
measurement_target: CDK4/Cyclin D1 (Homo sapiens (Human))
IC50: < 200 nM
//
compound: Cc1cc2cnc(Nc3ccc4c(c3)CN(C3CC3)C4)nc2c(N2CC3(CCNC3)C2)n1 [Compound 47]
measurement_target: CDK4/Cyclin D1 (Homo sapiens (Human))
IC50: < 200 nM
//
compound: Cc1cc2cnc(NC3CCN(S(C)(=O)=O)CC3)nc2c(N2CC3(CNCC3F)C2)n1 (stereo not shown) [Compound 98]
measurement_target: CDK4/Cyclin D1 (Homo sapiens (Human))
IC50: < 200 nM

====

# measurement_target: CDK6/Cyclin D3 (Homo sapiens (Human), UniProt Q00534)
# Sequence (Q00534 whole entry): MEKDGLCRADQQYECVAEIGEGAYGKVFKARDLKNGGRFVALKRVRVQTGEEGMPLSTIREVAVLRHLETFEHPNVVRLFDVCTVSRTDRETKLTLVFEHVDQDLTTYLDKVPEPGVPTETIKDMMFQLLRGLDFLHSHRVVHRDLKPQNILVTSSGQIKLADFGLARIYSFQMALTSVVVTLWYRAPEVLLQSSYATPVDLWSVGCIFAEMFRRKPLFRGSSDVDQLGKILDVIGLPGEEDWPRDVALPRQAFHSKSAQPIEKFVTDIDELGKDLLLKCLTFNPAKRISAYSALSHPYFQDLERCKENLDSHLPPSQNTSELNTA
# Sequence (P30281 whole entry partner): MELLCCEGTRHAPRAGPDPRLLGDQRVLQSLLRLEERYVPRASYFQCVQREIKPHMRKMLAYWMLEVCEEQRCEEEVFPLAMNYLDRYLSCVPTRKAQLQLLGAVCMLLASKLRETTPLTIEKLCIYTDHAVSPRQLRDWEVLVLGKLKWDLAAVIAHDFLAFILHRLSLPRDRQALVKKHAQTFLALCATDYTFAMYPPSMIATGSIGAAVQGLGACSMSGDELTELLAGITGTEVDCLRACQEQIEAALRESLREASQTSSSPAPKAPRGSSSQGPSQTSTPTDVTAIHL
# method_notes: CDK6/Cyclin D3 ADP-Glo Kinase Assay
# experimental_setup: read-out: CDK6/CyclinD3 IC50
Item-by-item account of IC50
measure_name: IC50

compound: Cc1cc2cnc(Nc3cc4c(cc3F)CN(S(C)(=O)=O)C4)nc2c(N2CC3(CCNC3)C2)n1 [Compound 39]
measurement_target: CDK6/Cyclin D3 (Homo sapiens (Human), UniProt Q00534)
measurement: > 2000 nM
--
compound: Cc1cc2cnc(NC3CCN(S(C)(=O)=O)CC3)nc2c(N2CCC3(CCC3(F)F)C2)n1 (stereo not shown) [Compound 52]
measurement_target: CDK6/Cyclin D3 (Homo sapiens (Human), UniProt Q00534)
measurement: < 200 nM
--
compound: Cc1cc2cnc(NC3CCN(S(=O)(=O)CC4CCCC4)CC3)nc2c(N2CC3(CCNC3)C2)n1 [Compound 51]
measurement_target: CDK6/Cyclin D3 (Homo sapiens (Human), UniProt Q00534)
measurement: 200 to 500 nM
--
compound: Cc1cc2cnc(NC3CCN(S(=O)(=O)C4CC4)CC3)nc2c(N2CC3(CCNCC3(F)F)C2)n1 [Compound 61]
measurement_target: CDK6/Cyclin D3 (Homo sapiens (Human), UniProt Q00534)
measurement: < 200 nM
--
compound: CS(=O)(=O)N1CCC(Nc2ncc3ccnc(N4CCC(C#N)(C5CC5)C4)c3n2)CC1 (stereo not shown) [Compound 5]
measurement_target: CDK6/Cyclin D3 (Homo sapiens (Human), UniProt Q00534)
measurement: < 200 nM
--
compound: Cc1cc2cnc(NC3CCN(S(=O)(=O)C4CC4)CC3)nc2c(N2CC(N3CC(F)C3)C2)n1 [Compound 72]
measurement_target: CDK6/Cyclin D3 (Homo sapiens (Human), UniProt Q00534)
measurement: 200 to 500 nM
--
compound: Cc1cc2cnc(Nc3ccc(N4CC5(CN(C)C5)C4)cc3)nc2c(N2CCC3(C2)CC3(F)F)n1 (stereo not shown) [Compound 34]
measurement_target: CDK6/Cyclin D3 (Homo sapiens (Human), UniProt Q00534)
measurement: < 200 nM
--
compound: CS(=O)(=O)N1CCC(Nc2ncc3ccnc(N4CCC5(C4)CC(F)(F)C5)c3n2)CC1 [Example 2]
measurement_target: CDK6/Cyclin D3 (Homo sapiens (Human), UniProt Q00534)
measurement: < 200 nM
--
compound: Cc1cc2cnc(NC3CCN(S(=O)(=O)C4CC4)CC3)nc2c(N2CC3(CCN(C)C3)C2)n1 [Compound 49]
measurement_target: CDK6/Cyclin D3 (Homo sapiens (Human), UniProt Q00534)
measurement: 200 to 500 nM
--
compound: CN1C[C@@H]2[C@H](C1)[C@H]2Nc1ncc2ccnc(N3CCC4(C3)CC4(F)F)c2n1 (stereo partly shown) [Compound 17]
measurement_target: CDK6/Cyclin D3 (Homo sapiens (Human), UniProt Q00534)
measurement: 200 to 500 nM
--
compound: CS(=O)(=O)N1CC(Nc2ncc3ccnc(N4CCC5(C4)CC5(F)F)c3n2)C1 (stereo not shown) [Compound 14]
measurement_target: CDK6/Cyclin D3 (Homo sapiens (Human), UniProt Q00534)
measurement: < 200 nM
--
compound: CN1CCC(n2cc(Nc3ncc4ccnc(N5CCC6(C5)CC6(F)F)c4n3)cn2)CC1 (stereo not shown) [Compound 20]
measurement_target: CDK6/Cyclin D3 (Homo sapiens (Human), UniProt Q00534)
measurement: < 200 nM
--
compound: Cc1cc2cnc(NC3CCN(S(=O)(=O)C4CC4)CC3)nc2c(N2CC(CS(C)(=O)=O)C2)n1 [Compound 74]
measurement_target: CDK6/Cyclin D3 (Homo sapiens (Human), UniProt Q00534)
measurement: 200 to 500 nM
--
compound: CN1Cc2ccc(Nc3ncc4ccnc(N5CC6(C5)CS(=O)(=O)C6)c4n3)cc2C1 [Compound 24]
measurement_target: CDK6/Cyclin D3 (Homo sapiens (Human), UniProt Q00534)
measurement: < 200 nM
--
compound: O=S(=O)(C1CC1)N1CCC(Nc2ncc3cc(C(F)F)nc(N4CC5(CCNC5)C4)c3n2)CC1 [Compound 46]
measurement_target: CDK6/Cyclin D3 (Homo sapiens (Human), UniProt Q00534)
measurement: < 200 nM
--
compound: Cc1cc2cnc(Nc3cc4c(cc3F)CN(S(C)(=O)=O)C4)nc2c(N2CC3(CNC3)C2)n1 [Compound 37]
measurement_target: CDK6/Cyclin D3 (Homo sapiens (Human), UniProt Q00534)
measurement: > 2000 nM

====

# measurement_target: CDK1/Cyclin B1 (Homo sapiens (Human))
# Sequence (P06493 whole entry): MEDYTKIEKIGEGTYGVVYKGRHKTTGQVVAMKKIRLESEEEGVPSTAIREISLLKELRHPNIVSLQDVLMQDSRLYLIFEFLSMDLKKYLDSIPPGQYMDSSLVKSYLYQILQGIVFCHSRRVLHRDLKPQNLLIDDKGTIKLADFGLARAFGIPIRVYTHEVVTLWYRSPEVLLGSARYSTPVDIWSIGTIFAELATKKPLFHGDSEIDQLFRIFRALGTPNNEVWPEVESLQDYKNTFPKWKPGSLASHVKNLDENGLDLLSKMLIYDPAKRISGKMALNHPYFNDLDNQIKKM
# Sequence (P14635 whole entry partner): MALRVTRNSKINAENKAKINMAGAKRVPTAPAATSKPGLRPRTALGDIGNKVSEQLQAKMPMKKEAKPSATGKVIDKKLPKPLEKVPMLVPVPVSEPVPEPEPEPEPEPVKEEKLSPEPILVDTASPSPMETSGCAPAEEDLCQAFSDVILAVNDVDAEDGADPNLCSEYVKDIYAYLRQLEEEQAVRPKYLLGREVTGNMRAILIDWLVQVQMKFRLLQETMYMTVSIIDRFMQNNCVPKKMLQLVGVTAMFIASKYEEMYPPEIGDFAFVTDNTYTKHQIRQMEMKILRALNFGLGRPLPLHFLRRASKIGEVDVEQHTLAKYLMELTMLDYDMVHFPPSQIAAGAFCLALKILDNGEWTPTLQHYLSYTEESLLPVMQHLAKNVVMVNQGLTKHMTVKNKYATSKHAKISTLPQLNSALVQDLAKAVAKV
# method_notes: CDK1/Cyclin B1 ADP-Glo Kinase Assay
Item-by-item account of IC50
measure_name: IC50

molecule: Cc1cc2cnc(Nc3ccc(N4CC5(CN(C)C5)C4)cc3)nc2c(N2CC3(C2)CS(=O)(=O)C3)n1
measurement: > 2000 nM
--
molecule: Cc1cc2cnc(NC3CCN(S(=O)(=O)c4cnn(C)c4)CC3)nc2c(N2CC3(CCNCC3(F)F)C2)n1
measurement: < 200 nM
--
molecule: Cc1cc2cnc(NC3CCN(S(=O)(=O)C4CC4)CC3)nc2c(N2CC3(C2)CC(C)(O)C3)n1
measurement: 200 to 500 nM
--
molecule: COC1CC2(C1)CN(c1nc(C)cc3cnc(NC4CCN(S(C)(=O)=O)CC4)nc13)C2
measurement: 200 to 500 nM
--
molecule: Cc1cc2cnc(Nc3cnn(CC4(N(C)C)CC4)c3)nc2c(N2CCC(C#N)(C3CC3)C2)n1 (stereo not shown)
measurement: > 2000 nM
--
molecule: Cc1cc2cnc(NC3CCN(S(C)(=O)=O)CC3)nc2c(C2CC3(CNCC3(F)F)C2)n1 (stereo not shown)
measurement: < 200 nM
--
molecule: Cc1cc2cnc(Nc3cc4c(cc3F)CN(S(C)(=O)=O)C4)nc2c(N2CC3(CCNC3)C2)n1
measurement: > 2000 nM

====

Item-by-item account of pIC50
# measurement_target: CDK6/Cyclin D3 (Homo sapiens (Human), UniProt Q00534)
# method_notes: CDK6/Cyclin D3 ADP-Glo Kinase Assay
# experimental_setup: read-out: CDK6/CyclinD3 IC50
pIC50: −log10 of the molar value.

compound: Cc1cc2cnc(NC3CCN(S(C)(=O)=O)CC3)nc2c(N2CCC3(CC3)C2)n1
pIC50: > 6.70
--
compound: CN1C[C@@H]2[C@H](C1)[C@H]2Nc1ncc2ccnc(N3CCC4(CCN(S(C)(=O)=O)C4)C3)c2n1 (some centres unmarked)
pIC50: < 5.70
--
compound: Cc1cc2cnc(NC3CCN(S(C)(=O)=O)CC3)nc2c(N2CC3(CCC(=O)NC3)C2)n1
pIC50: 6.30 to 6.70
--
compound: Cc1cc2cnc(Nc3ccc(N4CC5(CN(C)C5)C4)cc3)nc2c(N2CCC(C#N)(C3CC3)C2)n1 (centres unmarked)
pIC50: > 6.70
--
compound: COC1CC2(C1)CN(c1nc(C)cc3cnc(NC4CCN(S(C)(=O)=O)CC4)nc13)C2
pIC50: > 6.70
--
compound: CS(=O)(=O)N1CCC(Nc2ncc3ccnc(N4CCC5(C4)CC5(F)F)c3n2)CC1 (centres unmarked)
pIC50: > 6.70
--
compound: CS(=O)(=O)N1CCC(Nc2ncc3ccnc(N4C[C@H]5c6ccccc6S(=O)(=O)[C@H]5C4)c3n2)CC1
pIC50: > 6.70
--
compound: CN1CCN(c2ccc(Nc3ncc4ccnc(N5CCC6(C5)CC(F)(F)C6)c4n3)cc2)CC1
pIC50: > 6.70
